tested on: velvetleaf (Abutilon theophrasti, ABUTH); assay: Post-emerge test, greenhouse herbicide activity screening; type: in vivo; conditions: Abutilon theophrasti, post-emergence, 336 h; post-emerge, 250 g ai/ha, phytotoxicity rating 0-100 at 14 days after application; read-out: Post-emerge Herbicidal Activity ABUTH
Quantity measured: pest or weed control at 250 g/ha (%)
Hi! Could you send only the number? It should be in %, unit omitted.

Given the entry COc1c(Cl)cc(F)c(-c2nn(C)c(C(F)(F)F)c2Cl)c1N , report its measured pest or weed control at 250 g/ha.
100

Given the entry Nc1c(O)c(Cl)cc(F)c1N1C(=O)C2=C(CCCC2)C1=O , report its measured pest or weed control at 250 g/ha.
100

Given the entry COc1c(Cl)cc(F)c(-c2nn(C)c(C(F)(F)F)c2Cl)c1NC(=O)c1ccc2ccccc2c1 , report its measured pest or weed control at 250 g/ha.
95

Given the entry Cc1nn(-c2c(N)cc(Cl)cc2F)c(=O)n1C(F)F , report its measured pest or weed control at 250 g/ha.
80

* * *

system: upland rice (Oryza sp., var. Tebonnet, RICE); assay: Post-emerge test, crop safety; format: in vivo; conditions: post-emerge, 250 g ai/ha, 14 days after application, rating scale 0-100
Quantity measured: phytotoxicity rating RICE (crop damage)

In [3]: df
Out[3]:
                                   compound                        quantity_measured  value_observed
0  COc1c(Cl)ccc(-n2c(=O)cc(C(F)(F)F)n(C)c2=O)c1NC(=O)c1ccc2ccccc2c1 [2-202]  phytotoxicity rating RICE (crop damage)              60
1  Nn1c(C(F)(F)F)cc(=O)n(-c2c(F)cc(Cl)c(O)c2NC(=O)c2ccc3ccccc3c2)c1=O [Compound 2-192]  phytotoxicity rating RICE (crop damage)              20
2  Cc1cccc(C)c1OC(=O)Nc1c(C)c(Cl)cc(F)c1-n1c(=O)cc(C(F)(F)F)n(C)c1=O [4-55]  phytotoxicity rating RICE (crop damage)              35
3  COc1c(Cl)cc(F)c(-n2c(=O)cc(C(F)(F)F)n(C)c2=O)c1NC(=O)OCc1ccc2c(c1)OCO2 [4-41]  phytotoxicity rating RICE (crop damage)              85
4  COc1c(Cl)cc(F)c(-n2c(=O)cc(C(F)(F)F)n(C)c2=O)c1NC(=O)OCc1ccc(F)c(F)c1 [4-30]  phytotoxicity rating RICE (crop damage)              85
5  Cc1c(Cl)cc(F)c(-n2c(=O)cc(C(F)(F)F)n(C)c2=O)c1NC(=O)OCCc1ccccc1 [4-57]  phytotoxicity rating RICE (crop damage)              80

Given the entry COc1c(Cl)cc(F)c(-n2c(=O)cc(C(F)(F)F)n(C)c2=O)c1NC(=O)Oc1c(C)cc(C)cc1C [4-25] , report its measured phytotoxicity rating RICE (crop damage).
20

Given the entry COc1c(Cl)cc(F)c(-n2c(=O)cc(C(F)(F)F)n(C)c2=O)c1NC(=O)NCc1ccccc1 [Compound 3-6] , report its measured phytotoxicity rating RICE (crop damage).
70

Given the entry COc1c(Cl)cc(F)c(-n2c(=O)cc(C(F)(F)F)n(C)c2=O)c1NC(=O)OCc1ccc(C(F)(F)F)cc1 [4-43] , report its measured phytotoxicity rating RICE (crop damage).
0

Given the entry COc1c(Cl)cc(F)c(-n2c(=O)cc(C(F)(F)F)n(C)c2=O)c1NC(=O)OCc1cc(C)cc(C)c1 [4-37] , report its measured phytotoxicity rating RICE (crop damage).
60
